Assay: side by side comparison of 64Cu labeled SR-CP-05 with NT peptide analogs and 3BP-227 (FIG. 8), tumor uptake and contrast
Format: in vivo
Settings: tumor, 48 hr post injection
Description: The NTSR1 targeted imaging agent was constructed based on NTS peptide derivatives. Although high tumor-to-background contrast could be obtained, the absolute tumor uptake was moderate with fast clearance from the subject. Moreover, these NTSR1 binding peptides are generally agonists of NTSR1, which may promote tumor progress at high concentration. This may not be a concern for PET imaging due to the limited amount, but it could be a potential risk in treatment. […]
measurementName: tissue uptake at 48 hr

Exercise: Item under review: CNC(=O)c1ccc(-n2nc(C(=O)NC3(C(=O)O)C4CC5CC(C4)CC3C5)cc2-c2c(OC)cccc2OC)c(C(C)C)c1 (stereo not shown) . Reported tissue uptake at 48 hr?
Solution: > 15 %ID/g

---

experiment: side by side comparison of 64Cu labeled SR-CP-05 with NT peptide analogs and 3BP-227 (FIG. 8), tumor uptake and contrast; format: in vivo; details: tumor, 24 hr post injection
measurementName: tissue uptake at 24 hr

Exercise: Sample CNC(=O)c1ccc(-n2nc(C(=O)NC3(C(=O)O)C4CC5CC(C4)CC3C5)cc2-c2c(OC)cccc2OC)c(C(C)C)c1 (stereo not shown) [SR-CP-05] — what was its tissue uptake at 24 hr?
Solution: > 15 %ID/g
